# target under test: b-Raf (Homo sapiens, UniProt P15056, V600E)
# Construct: endogenous in cells; host or cells: A2058 human melanoma cells
# Sequence (P15056 whole entry V600E): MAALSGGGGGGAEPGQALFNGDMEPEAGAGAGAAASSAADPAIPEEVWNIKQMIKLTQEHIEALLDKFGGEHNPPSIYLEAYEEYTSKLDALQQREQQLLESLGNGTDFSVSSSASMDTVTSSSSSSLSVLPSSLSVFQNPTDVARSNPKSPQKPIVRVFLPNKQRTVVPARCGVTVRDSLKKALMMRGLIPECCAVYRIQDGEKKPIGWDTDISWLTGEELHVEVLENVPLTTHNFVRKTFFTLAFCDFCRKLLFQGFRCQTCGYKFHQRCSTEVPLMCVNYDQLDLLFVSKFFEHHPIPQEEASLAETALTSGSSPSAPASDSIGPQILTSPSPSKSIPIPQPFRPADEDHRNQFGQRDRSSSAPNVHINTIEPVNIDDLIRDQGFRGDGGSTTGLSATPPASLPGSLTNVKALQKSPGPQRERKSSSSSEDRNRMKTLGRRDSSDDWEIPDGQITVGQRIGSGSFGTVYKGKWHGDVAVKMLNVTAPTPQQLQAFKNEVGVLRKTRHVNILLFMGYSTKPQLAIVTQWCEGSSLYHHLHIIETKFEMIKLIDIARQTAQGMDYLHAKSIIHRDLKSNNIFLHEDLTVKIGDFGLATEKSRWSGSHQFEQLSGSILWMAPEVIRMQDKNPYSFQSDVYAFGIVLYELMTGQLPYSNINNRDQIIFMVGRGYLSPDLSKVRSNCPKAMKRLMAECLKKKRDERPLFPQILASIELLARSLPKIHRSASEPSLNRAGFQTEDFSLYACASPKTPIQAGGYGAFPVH
# assay summary: Raf cellular assay (phospho-Mek1/2 ELISA in A2058 cells)
# Format: cell-based
# measurement parameters: Table 3; human melanoma A2058 cells (b-Raf mutation), Mek1/2 Ser217/221 phosphorylation, 1 hour incubation; read-out: pMEK IC50
pIC50: −log10 of the molar value.
measured parameter: pIC50

These recorded examples may help you get a feel for the data.
1) CC(C)n1cc(-c2ccnc(N)c2)c(-c2cnc3[nH]cc(Cl)c3c2)n1 [Example H-1]: 7.59
2) C[C@H](O)CNc1nccc(-c2cn(CC(F)F)nc2-c2cnc3ccn(C)c3c2)n1 [Example B-35]: 6.71
3) Cc1c[nH]c2ncc(-c3nn(C4CCN(C)CC4)cc3-c3ccnc(NCC(F)F)n3)cc12 [Example B-113]: 8.83
4) CC(C)n1cc(-c2ccnc(NC[C@H](C)O)n2)c(-c2cnc(N)c(O)c2)n1 [Example B-45]: 6.50
5) CCn1cc(-c2ccnc(NC[C@H](C)O)n2)c(-c2cnc3[nH]cc(Cl)c3c2)n1 [Example B-61]: 7.17

A = Cc1n[nH]c2ncc(-c3nn(CC(F)F)cc3-c3ccnc(NC4CCOC4)n3)cc12 (stereo not drawn) [Example G-4]
B = COc1cc(-c2nn(C3CC3)cc2-c2ccnc(NCC(F)F)n2)cnc1N [Example B-59]
C = COc1cc(-c2n[nH]cc2-c2ccnc(NCC(F)F)n2)cnc1N [Example B-68]
Q: # desc sort on pIC50 across 3 molecules Would you mind listing the labels in the order asked for?
A: B, C, A

----------
# target under test: b-Raf (Homo sapiens, UniProt P15056, V600E)
# Construct: endogenous in cells; host or cells: A2058 human melanoma cells
# assay summary: Raf cellular assay (phospho-Mek1/2 ELISA in A2058 cells)
# Type: cell-based
# measurement parameters: Table 3; human melanoma A2058 cells (b-Raf mutation), Mek1/2 Ser217/221 phosphorylation, 1 hour incubation; read-out: pMEK IC50
pIC50: −log10 of the molar value.
measured parameter: pIC50

Worked set:
1) Cc1n[nH]c2ncc(-c3nn(C(C)C)cc3-c3ccnc(NCCC#N)n3)cc12 [Example B-51]: 7.96
2) C[C@H](O)CNc1nccc(-c2cn(C3CCOC3)nc2-c2cnc3[nH]cc(Cl)c3c2)n1 (some centres unmarked) [Example G-1]: 7.79

1 = CC(C)n1cc(-c2ccnc(NC[C@H](C)O)n2)c(-c2cnc3[nH]cc(Cl)c3n2)n1 [Example I-2]
2 = CC(C)n1cc(-c2ccnc(NCCC#N)n2)c(-c2cnc3[nH]ccc3c2)n1 [Example B-50]
3 = CN1CCC(n2cc(-c3ccncn3)c(-c3cnc4[nH]cc(Cl)c4c3)n2)CC1 [Example F-2]
Q: I would appreciate it if you could sort these 3 compounds by pIC50, starting from the smallest number. Use the labels to give the ranking in the order requested.
A: 3, 1, 2

a = CC(=O)c1cc(-c2nn(C(C)C)cc2-c2ccnc(NCCC#N)n2)cnc1N [Example B-52]
b = CC(C)(C#N)n1cc(-c2ccnc(NCCO)n2)c(-c2cnc3[nH]cc(Cl)c3c2)n1 [Example G-5]
Q: Among a and b , whose measured pIC50 is the smaller figure? Write down the label of the entry you select.
A: b
(b: 7.70, a: 8.03)

A = Cc1cc(-c2nn(C(C)(C)CO)cc2-c2ccnc(NCCC#N)n2)cnc1N [Example B-47]
B = CC1CNc2ncc(-c3nn(CC(F)F)cc3-c3ccnc(NC[C@H](C)O)n3)cc21 (some centres unmarked) [Example B-87]
Q: Endpoint returns the identifier whose pIC50 is numerically larger, either A or B . Write the label of whichever entry you select.
A: A

----------
# target under test: b-Raf (Homo sapiens, UniProt P15056, V600E)
# Construct: endogenous in cells; host or cells: A2058 human melanoma cells
# assay summary: Raf cellular assay (phospho-Mek1/2 ELISA in A2058 cells)
# Assay type: cell-based
# measurement parameters: Table 3; human melanoma A2058 cells (b-Raf mutation), Mek1/2 Ser217/221 phosphorylation, 1 hour incubation; read-out: pMEK IC50
pIC50: −log10 of the molar value.
measured parameter: pIC50

1. CC(C)(C#N)n1cc(-c2ccnc(N)n2)c(-c2cnc3[nH]cc(Cl)c3c2)n1: 7.76

P = Cc1[nH]c2ncc(-c3nn(C(C)C)cc3-c3ccnc(NC[C@H](C)O)n3)cc2c1Cl
Q = Cc1c[nH]c2ncc(-c3nn(C(F)F)cc3-c3ccnc(NCCC#N)n3)cc12
R = COc1cncc(-c2nn(C(C)(C)CO)cc2-c2ccnc(NCCC#N)n2)c1
Q: Arrange by pIC50, high to low. Record the ranking as a list of labels in the requested order.
A: Q, R, P

----------
# target under test: b-Raf (Homo sapiens, UniProt P15056, V600E)
# Construct: endogenous in cells; host or cells: A2058 human melanoma cells
# assay summary: Raf cellular assay (phospho-Mek1/2 ELISA in A2058 cells)
# Type: cell-based
# measurement parameters: Table 3; human melanoma A2058 cells (b-Raf mutation), Mek1/2 Ser217/221 phosphorylation, 1 hour incubation; read-out: pMEK IC50
measured parameter: IC50 (nM)

Here is how some compounds turned out for IC50.
1. C[C@H](O)CNc1nccc(-c2cn([C@H]3C[C@@H](F)C3)nc2-c2cnc3[nH]cc(Cl)c3c2)n1: 18.7
2. CC(C)n1cc(-c2ccnc(N)c2)c(-c2cnc3[nH]ccc3c2)n1: 1020
3. Cn1ccc2ncc(-c3nn(CC(F)F)cc3-c3ccnc(NCCC#N)n3)cc21: 18.7
4. COc1cc(-c2nn([C@H]3C[C@H](F)C3)cc2-c2ccnc(NC[C@H](C)O)n2)cnc1N: 21.9
5. CC(C)n1cc(-c2ccnc(NCCC#N)n2)c(-c2cnc3[nH]cc(F)c3c2)n1: 2.71

I = C[C@H](O)CNc1nccc(-c2cn(CC(F)F)nc2-c2cnc3c(c2)[C@@H](C)CN3)n1
II = COc1cc(-c2nn(C(C)(C)C)cc2-c2ccncn2)cnc1N
Q: Out of I and II , name the one with the higher IC50. I would appreciate it if you answered with the label of your choice.
A: I
(I: 280 nM, II: 55.4 nM)

a = N#CCCNc1nccc(-c2cn(CC(F)F)nc2-c2cnc3[nH]ccc3c2)n1
b = COc1nc(-c2nn(CC(F)F)cc2-c2ccnc(NC[C@H](C)O)n2)cnc1N
c = COc1cc(-c2nn(-c3ccc(C#N)cc3)cc2-c2ccnc(NCCO)n2)cnc1N
d = Cc1c[nH]c2ncc(-c3nn(CC(F)F)cc3-c3ccnc(N)n3)cc12
Q: Put these in order: smallest IC50 first, largest last. Please list each label once, in the requested order.
A: a, d, c, b

P = Cc1c[nH]c2ncc(-c3nn(C(C)(C)CO)cc3-c3ccnc(N)n3)cc12
Q = N#CCCNc1nccc(-c2cn(CC(F)F)nc2-c2cnc3c(ccn3CCC#N)c2)n1
R = COc1cc(-c2nn(C(C)(C)C)cc2-c2ccnc(NCC(F)F)n2)cnc1N
S = COc1cc(-c2nn(C(C)C)cc2-c2ccnc(NC[C@H](C)O)n2)cnc1N
T = FC(F)CNc1nccc(-c2cn(C3CCNCC3)nc2-c2cnc3[nH]cc(Cl)c3c2)n1
Q: Sort entries by IC50 from minimum to maximum value. Give the labels in the order requested.
A: R, S, P, T, Q
(R: 1.24 nM, S: 6.13 nM, P: 9.86 nM, T: 30.4 nM, Q: 107 nM)

----------
# target under test: b-Raf (Homo sapiens)
# Construct: Full-length wild type b-Raf is expressed in recombinant form and purified from bacterial or insect cells
# assay summary: Raf biochemical assay (in vitro kinase assay, 32-P transfer from ATP to Mek1)
# measurement parameters: full-length wild type b-Raf, Mek1 substrate, 25 μM ATP
pKi: −log10 of the molar value.
measured parameter: pKi

1) C[C@H](O)CNc1nccc(-c2cn(CC(F)F)nc2-c2cnc3[nH]ccc3c2)n1 [Example B-14]: 9.15

1 = Cc1c[nH]c2ncc(-c3nn(C(C)C)cc3-c3ccnc(NC[C@H](C)O)n3)cc12 [Example B-5]
2 = CC(C)n1cc(-c2ccnc(NCCc3cn[nH]c3)n2)c(-c2cnc3[nH]ccc3c2)n1 [Example D-7]
3 = CC(C)n1cc(-c2ccnc(NCC3CCOC3)n2)c(-c2cnc3[nH]ccc3c2)n1 [Example D-12]
4 = Cc1nc(CNc2nccc(-c3cn(C(C)C)nc3-c3cnc4[nH]ccc4c3)n2)c(C)o1 [Example D-11]
Q: Hey, can you sort those compounds up there by pKi, smallest first? Sort the labels as requested; that list is your answer.
A: 3, 4, 2, 1
